# credit: PubChem BioAssay AID743304

Catalogue of compounds with associated AC50
- Test system: C. neoformans growth with sorbitol, alamar blue, 24 h
- PROTOCOL: C. neoformans growth inhibition with sorbitol, dose response, mechanism study for C. neoformans lysis project, alamar blue, dry powder, set 3 (AID 743304)

Cc1ccc(OCCn2cnc3ccccc32)c(C(C)C)c1 | 24 µM

The value of AC50 recorded for CC(C)c1ccc(OCCn2c(=S)[nH]c3ccccc32)cc1 when tested on C. neoformans growth with sorbitol, alamar blue, 24 h reads 4.21 µM

Item: Fc1ccc2[nH]c(=S)n(CCOc3ccccc3)c2c1 | System: C. neoformans growth with sorbitol, alamar blue, 24 h | AC50: 23.5 µM

Value (AC50, C. neoformans growth with sorbitol, alamar blue, 24 h) for record COc1ccc(OCCn2c(=S)[nH]c3ccccc32)cc1 = 26.2 µM
